study-system: T1, PARD3B_1, Q8TEW8
T1 sequence (Q8TEW8 196-299, limits assumed, looked up): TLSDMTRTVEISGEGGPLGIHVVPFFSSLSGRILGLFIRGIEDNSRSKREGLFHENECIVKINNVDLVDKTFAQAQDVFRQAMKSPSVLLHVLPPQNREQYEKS
procedure-text: holdup assay
Set-up: key: below the threshold = too weak to quantify, mostly under pKd 3.1 to 4
condition-label: plain residues with an end cap or a label only (N-terminal biotin on a linker: ttds)
reported-property: pKd

The cases that follow already have their pKd on record.
Any idea what pKd was measured for SSIDLWETAL [SLC15A5, A6NIM6] ?
4.49

And then GRLLGLETNV [ARHGEF26, Q96DR7] , what is it?
below the threshold

And then SHSSKGETAV [FZD7, O75084] , what is it?
3.52

And then PFRSRSPSEV [GPR6, P46095] , what is it?
3.8

And then SGGKRKETLV [NET1, Q7Z628] , what is it?
3.52

New cases:
Any idea what pKd was measured for KQVVPFSSSV [GDA, Q9Y2T3] ?
below the threshold

And then KLVIKTETTV [RASSF6, Q6ZTQ3] , what is it?
below the threshold

And then SRSRRRETAL [HPV33-E6, P06427] , what is it?
3.43

And then NPDALPETLV [ARHGAP6, O43182] , what is it?
below the threshold

And then PSRDRKETSI [RALBP1, Q15311] , what is it?
3.76

And then FVETQHQTQV [FAT3, Q8TDW7] , what is it?
below the threshold

And then QRPYRRESEI [KCNJ12, Q14500] , what is it?
below the threshold

And then DLDEEEDTHL [PODXL, O00592] , what is it?
below the threshold

And then GARVSKETPL [MAPK12, P53778] , what is it?
below the threshold

And then PPRQRSETQV [HPV82-E6, Q9IR59] , what is it?
below the threshold
